testMethodNotes: self-splicing fitness, log relative to wild type (ln ratio); higher = more splicing; Tetrahymena group I intron in knt gene, E. coli kanamycin selection, DiMSum; sequences stand for … in CUCUCU…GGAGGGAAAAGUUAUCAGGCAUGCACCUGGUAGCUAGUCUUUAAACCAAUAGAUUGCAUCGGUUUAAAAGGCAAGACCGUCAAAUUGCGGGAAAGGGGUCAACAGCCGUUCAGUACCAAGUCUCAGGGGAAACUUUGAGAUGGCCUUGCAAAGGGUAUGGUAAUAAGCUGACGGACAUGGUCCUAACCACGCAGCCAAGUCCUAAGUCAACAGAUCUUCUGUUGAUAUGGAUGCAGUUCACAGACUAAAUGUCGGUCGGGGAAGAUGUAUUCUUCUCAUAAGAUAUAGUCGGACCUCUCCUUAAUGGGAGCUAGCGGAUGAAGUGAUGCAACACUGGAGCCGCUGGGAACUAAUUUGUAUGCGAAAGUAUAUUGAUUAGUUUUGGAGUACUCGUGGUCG;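 also: selection with 25 µg/mL kanamycin versus none on LB agar overnight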
assaySetup: 30 °C
Measured self-splicing fitness (ln) determines class: small value: < -3; mid value: ≥ -3 and < -2; large value: ≥ -2

Reference set, count: 8
[[record]]
orderedresidues = "AGCGAGCAAUAUUACGUAGU"
classification = "small value"

[[record]]
orderedresidues = "CAAAAGCAAUAUUACGACAC"
classification = "small value"

[[record]]
orderedresidues = "GCAAAGCAAUAUUACGCUCC"
classification = "small value"

[[record]]
orderedresidues = "ACUUAGCAAUAUUACGAAUU"
classification = "mid value"

[[record]]
orderedresidues = "UUCAAGCAAUAUUACGAUCC"
classification = "mid value"

[[record]]
orderedresidues = "UCGCAGCAAUAUUACGUCGG"
classification = "mid value"

[[record]]
orderedresidues = "CUACAGCAAUAUUACGACGA"
classification = "mid value"

[[record]]
orderedresidues = "UAUCAGCAAUAUUACGCGGU"
classification = "mid value"


Q: Assign a category based on measured self-splicing fitness (ln) for AUUCAGCAAUAUUACGUCAC and give only the class name.
Result: small value

Q: Record GUGUAGCAAUAUUACGUCUU — which class?
Result: large value

Q: Lab log: GCCAAGCAAUAUUACGGCCA — assign self-splicing fitness (ln) category
Result: large value

Q: Lab note: sort CCAUAGCAAUAUUACGGAAG into the matching self-splicing fitness (ln) band.
Result: small value

Q: Pick a category. Item: CACCAGCAAUAUUACGCUGU
Result: small value

====

Overview of reported self-splicing fitness (ln) across a group of sequences:
testMethodNotes: self-splicing fitness, log relative to wild type (ln ratio); higher = more splicing; Tetrahymena group I intron in knt gene, E. coli kanamycin selection, DiMSum; sequences stand for … in CUCUCU…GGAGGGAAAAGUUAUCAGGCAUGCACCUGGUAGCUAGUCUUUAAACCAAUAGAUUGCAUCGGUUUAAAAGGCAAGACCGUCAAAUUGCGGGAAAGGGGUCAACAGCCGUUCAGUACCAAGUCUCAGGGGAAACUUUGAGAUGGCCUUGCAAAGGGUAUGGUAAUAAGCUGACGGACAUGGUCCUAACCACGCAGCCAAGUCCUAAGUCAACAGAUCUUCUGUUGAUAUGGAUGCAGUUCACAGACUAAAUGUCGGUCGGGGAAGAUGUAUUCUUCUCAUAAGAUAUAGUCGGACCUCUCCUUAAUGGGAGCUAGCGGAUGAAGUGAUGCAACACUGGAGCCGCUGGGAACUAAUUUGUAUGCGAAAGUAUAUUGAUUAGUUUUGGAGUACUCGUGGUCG
assaySetup: 30 °C
Lab note: write the figure by itself, no unit.

Examples with their reported self-splicing fitness (ln) follow.
[[record]]
orderedresidues = "UUUUAGCAAUAUUACGUUGG"
assaymetric = "self-splicing fitness (ln)"
readoutnumber = -2.07

[[record]]
orderedresidues = "UUGAAGCAAUAUUACGGUUU"
assaymetric = "self-splicing fitness (ln)"
readoutnumber = -2.88

[[record]]
orderedresidues = "GUCUAGCAAUAUUACGUUUG"
assaymetric = "self-splicing fitness (ln)"
readoutnumber = -2.11

[[record]]
orderedresidues = "CCGUAGCAAUAUUACGAGGA"
assaymetric = "self-splicing fitness (ln)"
readoutnumber = -2.96


Q: Look at this sequence and give its reported self-splicing fitness (ln). UACAAGCAAUAUUACGCAAG
Result: -2.81

Q: // returns reported self-splicing fitness (ln) for input UAAAAGCAAUAUUACGUACG
Result: -0.745

Q: Requested read-out: self-splicing fitness (ln). Entry: CACGAGCAAUAUUACGCGUA
Result: -2.23

Q: So what does the record say about self-splicing fitness (ln) for CAGGAGCAAUAUUACGUUAC ?
Result: -2.43
